System: SNB-75
Test: NCI tumour cell line growth inhibition, 48 h
Calls of active or inactive are those of the source. No stated cut-off is given here; in the data, active = GI50 up to about 1.1 µM and inactive = higher.
Recorded measurements of GI50, one per entry

{"columns": ["compound", "measurement"],
 "data": [
  ["O=S1(=O)OCCOS(=O)(=O)C1C1c2ccccc2-c2ccccc21", "2.41 µM (inactive)"],
  ["C[N+](C)(C)CC1CCc2ccccc2C1=O (stereo not given)", "16.7 µM (inactive)"]
]}

Inquiry: // returns reported GI50 for input `COc1cc(/C=C2\N=C(c3ccccc3)N(c3ccc(S(=O)(=O)Nc4nccs4)cc3)C2=O)ccc1O`
Reply text: 62.8 µM (inactive)

Inquiry: // returns reported GI50 for input `COC(=O)C[C@H](COCc1ccccc1)NC(=O)C[C@H](COCc1ccccc1)NC(=O)OC(C)(C)C`
Reply text: 25.1 µM (inactive)

Inquiry: // returns reported GI50 for input COc1cc2c(cc1OC)CC1c3cc(OC)c(OC)cc3CCN1CC2 (stereo not given)
Reply text: > 100 µM (inactive)

Inquiry: // returns reported GI50 for input `CN(CCCNC(=O)c1nn(-c2ccccc2)c2c1ccc1ccccc12)CCCNC(=O)c1nn(-c2ccccc2)c2c1ccc1ccccc12`
Reply text: 1.64 µM (inactive)

Inquiry: // returns reported GI50 for input `O=c1c2c(F)c(F)c(F)c(F)c2sc2nccn12`
Reply text: 22.5 µM (inactive)

Inquiry: // returns reported GI50 for input CC1(C(=O)O)CCC2(C)CCC3(C)C(=CC(=O)C4C5(C)CCC(O)C(C)(C)C5CCC43C)C2C1 (stereo not given)
Reply text: 33.8 µM (inactive)

Inquiry: // returns reported GI50 for input CCCCCCCCCCCCCCN [TETRADECYLAMINE]
Reply text: > 100 µM (inactive)

Inquiry: // returns reported GI50 for input `CCCCCCCCCCOC(=O)c1cc[n+](C)cc1`
Reply text: 19.3 µM (inactive)

---

Test system: SNB-75
Assay: NCI tumour cell line growth inhibition, 48 h
Active and inactive are the calls of the source. Rule as the data show it: active = GI50 up to about 1.1 µM and inactive = higher. Square brackets hold non-standard residues; d marks the D form. Peptide text beside a SMILES is read from it. * marks the point of attachment. ξ: configuration not given here. NMeN = CN[C@@H](CC(N)=O)C(=O)O; NMeV = CN[C@H](C(=O)O)C(C)C; ξNMeV = CNC(C(=O)O)C(C)C; Boc = CC(C)(C)OC(=O)*; ξNMeA = CNC(C)C(=O)O
measuredEndpoint: GI50

Example entries and their recorded answers appear below.
{"columns": ["molecule", "measuredEndpoint", "measurement"],
 "data": [
  ["O=C1NC(=O)C(C(CC(=O)c2ccc(Cl)cc2)c2ccc(Cl)cc2)C(=O)N1 (centres undefined)", "GI50", "> 100 µM (inactive)"],
  ["COC(=O)C(C)N(C)C(=O)[C@H](CC(N)=O)N(C)C(=O)[C@@H]1CCCN1C(=O)[C@H](C(C)C)N(C)C(=O)C(C(C)C)N(C)C(=O)[C@@H](NC(=O)OC(C)(C)C)C(C)C (some centres undefined) (Boc-V[ξNMeV][NMeV]P[NMeN][ξNMeA]-OMe)", "GI50", "> 100 µM (inactive)"],
  ["CCSc1c2cc(OC)ccc2nc2ccc(OC)cc12", "GI50", "6.73 µM (inactive)"],
  ["O=C(O)C1Cc2[nH]c3ccccc3c2C2CCCC12 (centres undefined)", "GI50", "46.3 µM (inactive)"],
  ["O=C(Nc1ccc2c(c1)oc(=O)c1ccccc12)C(Cl)Cl", "GI50", "> 100 µM (inactive)"],
  ["CC(=O)O[C@H]1[C@@H](N2CCOCC2)C[C@H]2[C@@H]3CC=C4C[C@@H](N5CCCC5)CC[C@]4(C)[C@H]3CC[C@@]21C", "GI50", "> 100 µM (inactive)"]
]}

Inquiry: // returns reported GI50 for input CCOC(=O)C(C)(C)C(O)C(C)C (centres undefined)
Reply text: > 100 µM (inactive)

Inquiry: // returns reported GI50 for input `CCOC(=O)CSc1cc[nH]c(=O)n1`
Reply text: > 100 µM (inactive)

Inquiry: // returns reported GI50 for input `Cc1nc(-c2nc([N+](=O)[O-])c([N+](=O)[O-])[nH]2)cs1`
Reply text: > 100 µM (inactive)
